- target.or.system: rat μ (C6-MOR) opioid receptor (Rattus norvegicus)
- Sequence (P33535 whole entry): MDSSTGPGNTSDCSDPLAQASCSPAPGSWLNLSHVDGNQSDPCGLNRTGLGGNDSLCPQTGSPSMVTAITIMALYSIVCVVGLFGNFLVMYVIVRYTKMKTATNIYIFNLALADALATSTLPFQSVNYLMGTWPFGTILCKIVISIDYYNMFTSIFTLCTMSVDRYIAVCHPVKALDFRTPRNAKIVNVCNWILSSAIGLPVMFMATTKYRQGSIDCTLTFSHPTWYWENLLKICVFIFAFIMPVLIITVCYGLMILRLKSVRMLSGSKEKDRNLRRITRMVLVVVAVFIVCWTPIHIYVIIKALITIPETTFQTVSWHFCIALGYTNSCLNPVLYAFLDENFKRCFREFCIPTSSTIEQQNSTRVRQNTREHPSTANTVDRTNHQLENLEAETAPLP
pKi: −log10 of the molar value.
Label scheme for pKi: lower than 10 is label 0, 10 and above is label 1.

In: Has Cc1cc(O)cc(C)c1C[C@H](N)C(=O)N[C@@H]1CCNc2c(C)cc(Cc3ccccc3)cc21 [Compound 1100] a recorded pKi greater than or equal to 10?
Out: label 0

In: CCCc1cc(Cc2ccccc2)cc2c1NCC[C@H]2NC(=O)[C@@H](N)Cc1c(C)cc(O)cc1C [Compound 1056] , same question.
Out: label 0

In: Would you kindly repeat that for CCc1cc(Cc2ccccc2)cc2c1NCC[C@H]2NC(=O)[C@@H](N)Cc1c(C)cc(O)cc1C [Compound 1127] ?
Out: label 1

In: Item: Cc1cc(O)cc(C)c1C[C@H](N)C(=O)NC1CCc2ccc(Cc3ccccc3)cc21 (some centres unmarked) [Compound 1114]
Out: label 0

In: Next up: CCCCCc1ccc2c(c1)[C@H](NC(=O)[C@@H](N)Cc1c(C)cc(O)cc1C)CCN2 [Compound 1013]
Out: label 0
